# activity change, negative = inhibition values compiled below
protocolDescription: AP1 Signaling Pathway (AID 357);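 further: ME-180 reporter cells stimulated with EGF at its EC50 level; on the % scale 0 is the no-effect control and ±100 the full control effect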
settings: ME-180 (cervical carcinoma) AP-1-bla reporter, EGF-induced, beta-lactamase ratio, 5 h; at 17.2 µM (top of the series) unless noted
Protocol: NCGC Assay Overview: Activator protein-1 (AP-1), a transcription factor, plays an important role in tumor genesis by regulating genes involved in cell proliferation, differentiation, apoptosis, and angiogenesis. AP-1 activity is induced by a complex network of signaling pathways that involves extracellular signals, such as growth factors. […] Library compounds were measured for their ability to modulate positively or negatively the action of EC50 EGF on reporter gene activity. […]
Results filed as inconclusive are left out.
Write the value in % as a bare number.

- compound: "CC12CN3CC(C)(CN(C1)C3c1ccc(Cl)cc1Cl)C2O (stereo not given)"
  unit: "%"
  activity change, negative = inhibition: 3.94
- compound: "CCCc1nnc(SCc2ccc(OCC)cc2)n1N"
  unit: "%"
  activity change, negative = inhibition: 4.67
- compound: "Cc1cccc(OCC(=O)NCC(=O)n2nc(C)cc2C)c1"
  unit: "%"
  activity change, negative = inhibition: 2.67
- compound: "COC(=O)CSc1nc(C)c(C(C)=O)cc1C#N"
  unit: "%"
  activity change, negative = inhibition: 4.99

Record COc1ccc(/C(O)=C2/C(=O)C(=O)N(CCN(C)C)C2c2ccccn2)cc1OC (stereo not given) . Reported activity change, negative = inhibition: 4.92

Record COc1cccc(C2/C(=C(/O)c3cnn(-c4ccccc4)c3C)C(=O)C(=O)N2CCN(C)C)c1 (stereo not given) . Reported activity change, negative = inhibition: 3.35

Record `Cc1cc(C)nc(N(C#N)S(=O)(=O)c2ccccc2Cl)n1` . Reported activity change, negative = inhibition: 0.835

Record `Cc1cc(C)n(-c2nnc(C)n2/N=C/c2ccco2)n1` . Reported activity change, negative = inhibition: 4.26

Record COc1cccc(C2/C(=C(\O)c3ccc(OC)c(OC)c3)C(=O)C(=O)N2c2cc(C)on2)c1 (stereo not given) . Reported activity change, negative = inhibition: -7.94

====

Tested on: CP247
protocolDescription: qHTS profiling for inhibitors of Plasmodium falciparum proliferation (AID 504749); further: nearly all actives have a fitted effect of over 60% in size
settings: P. falciparum in erythrocytes, SYBR Green DNA, 72 h; series mostly up to 28.7 µM
Results filed as inconclusive are left out. The source made the active and inactive calls. The call rests on the fitted dose curve; in most records, active means well fitted inhibition curve with a large enough effect; inconclusive means small, poorly fitted or top-dose-only effect; inactive means flat fitted curve, though single readings scatter.
Result category, one only: Yes for active, No for inactive

Example cases with answers are listed next.
- compound: "Cc1cn([C@H]2CC(F)[C@@H](CO)O2)c(=O)[nH]c1=O (some centres not stated)"
  class: "No"
- compound: "CCN(CC)CC(=O)Nc1c(C)cc(C)cc1C"
  class: "No"
- compound: "CCC(C(=O)O)C1OC(C(C)C(O)C(C)C(=O)C(CC)C2OC3(C=CC(O)C4(CCC(C)(C5CCC(O)(CC)C(C)O5)O4)O3)C(C)CC2C)C(C)CC1C (configuration not stated)"
  class: "Yes"
- compound: "CO/N=C(/C(=O)N[C@@H]1C(=O)N2C(C(=O)O)=C(CSc3nc(C)c(CC(=O)O)s3)CS[C@H]12)c1csc(N)n1"
  class: "No"

// return assay outcome for `CC1(C)OC[C@@H]2O[C@@]3(C(=O)O)OC(C)(C)O[C@@H]3[C@@H]2O1`
No

// return assay outcome for C=CC1CN2CCC1CC2[C@@H](O)c1ccnc2ccc(OC)cc12 (some centres not stated)
Yes

// return assay outcome for C[N+]12CCCC[C@@H]1CCC(=C(c1cccs1)c1cccs1)C2 (some centres not stated)
Yes

====

Tested on: CP265
protocolDescription: qHTS profiling for inhibitors of Plasmodium falciparum proliferation (AID 504749); further: nearly all actives have a fitted effect of over 60% in size; further: potency means the concentration at half of the fitted maximal effect
settings: P. falciparum in erythrocytes, SYBR Green DNA, 72 h; series mostly up to 28.7 µM
Results filed as inconclusive are left out. Activity calls are given as the source filed them. Calls follow the shape of the dose curve; as a rule, active = well fitted inhibition curve with a large enough effect; inconclusive = small, poorly fitted or top-dose-only effect; inactive = flat fitted curve, though single readings scatter.
propertyLabel: Potency

Solved entries:
- compound: "CN[C@H](C)CCC=C(C)C"
  propertyLabel: "Potency"
  reading: "398 nM (active)"
- compound: "Cc1onc(-c2c(F)cccc2Cl)c1C(=O)NC1C(=O)N2C1SC(C)(C)C2C(=O)O (stereo unspecified)"
  propertyLabel: "Potency"
  reading: "inactive"
- compound: "CCN1CCN(C(=O)NC(C(=O)NC2C(=O)N3C(C(=O)O)=C(CSc4nnnn4C)CSC23)c2ccc(O)cc2)C(=O)C1=O (stereo unspecified)"
  propertyLabel: "Potency"
  reading: "inactive"
- compound: "C[S+](C)CC[C@H](N)C(=O)O"
  propertyLabel: "Potency"
  reading: "inactive"
- compound: "CC(C)C[C@@H](NC(=O)[C@@H](Cc1ccccc1)NC(=O)c1cnccn1)B(O)O"
  propertyLabel: "Potency"
  reading: "141 nM (active)"

Record `Clc1ccc(CS[C@@H](Cn2ccnc2)c2ccc(Cl)cc2Cl)cc1` . Reported Potency: 3160 nM (active)

Record C[C@H]1[C@@H](OC(=O)CCC(=O)O)OC2OC3(C)CC[C@H]4[C@H](C)CC[C@@H]1[C@@]24OO3 (stereo partly specified) . Reported Potency: 2.5 nM (active)

====

protocolDescription: NFAT Signaling Pathway (AID 444);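 further: carbachol stimulus at about its EC50 of 1 µM final; on the % scale 0 is the no-effect control and ±100 the full control effect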
settings: Jurkat NFAT-bla M1, carbachol, beta-lactamase ratio, 5 h; at 17.2 µM (top of the series) unless noted
Records with an inconclusive call do not appear. Active and inactive are the calls of the source. Calls come from the whole dose curve; as a rule, active = well fitted curve in either direction with a large enough effect (not every such curve was filed as active); inconclusive = small, poorly fitted or top-dose-only effect, or another doubt; inactive = flat fitted curve, though single readings scatter.
# activity change, negative = inhibition values compiled below

Solved entries:
- molecule: "O=C(c1ccco1)N1CCN(c2ncnc3c2[nH]c2ccccc23)CC1"
  reading: "11% (inactive)"
- molecule: "Oc1ccccc1CNn1cnnc1"
  reading: "15.6% (inactive)"
- molecule: "CCOCCN(C(=O)COC)c1cccc(OC)c1"
  reading: "2.78% (inactive)"
- molecule: "COc1cccc(C2=CC(c3ccccc3)n3nnnc3N2)c1 (centres undefined)"
  reading: "-25.6% (inactive)"
- molecule: "Cc1cc(N2CCCCC2)nc2ccc(Cc3ccc4nc(N5CCCCC5)cc(C)c4c3)cc12"
  reading: "-1.68% [at 7.69 µM] (inactive)"
- molecule: "COc1cc(Cn2ccnc2)c(OC)cc1Cn1ccnc1"
  reading: "-19.5% (inactive)"
- molecule: "COc1ccc(CN(C)CCc2ccccn2)c(OC)c1OC"
  reading: "-17.4% (inactive)"
- molecule: "COc1cc(C)nc(Oc2ccc(OCCOc3ccc(C)cc3)nn2)n1"
  reading: "5.08% (inactive)"

Next, consider the following molecule.
Record `Cn1ncc(N=Cc2ccccc2O)c1C(=O)N1CCOCC1` . Reported activity change, negative = inhibition: -6.4% (inactive)

====

Test system: ATS95
protocolDescription: qHTS profiling for inhibitors of Plasmodium falciparum proliferation (AID 504749); further: nearly all actives have a fitted effect of over 60% in size
settings: P. falciparum in erythrocytes, SYBR Green DNA, 72 h; series mostly up to 28.7 µM
Protocol: NIH National Institute of Allergy and Infectious Diseases [NIAID] NIH Chemical Genomics Center [NCGC] […] Because mature erythrocytes lack DNA, only Plasmodium-derived DNA is detected. NCGC Assay Protocol Summary: The SYBR Green viability assay was adapted from a method described previously (Plouffe et al., 2008). […] The following morning, fluorescence intensity at 485(14) nm excitation and 535(25) nm emission wavelengths was measured on an EnVision (Perkin Elmer) plate reader. […]
Records with an inconclusive call do not appear. Calls of active or inactive are those of the source. Calls come from the whole dose curve; as a rule, active = well fitted inhibition curve with a large enough effect; inconclusive = small, poorly fitted or top-dose-only effect; inactive = flat fitted curve, though single readings scatter.
Result category, one only: active, inactive

Example cases with answers are listed next.
- compound: "NCCCCC(N)C(=O)O (stereo unspecified)"
  class: "inactive"
- compound: "COc1ccc2cc1Oc1cc3c(cc1OC)CC[N+](C)(C)C3Cc1ccc(cc1)Oc1c(OC)c(OC)cc3c1C(C2)[N+](C)(C)CC3 (stereo unspecified)"
  class: "inactive"
- compound: "Cn1cc(C(=O)[C@@H]2CCc3[nH]cnc3C2)c2ccccc21"
  class: "inactive"
- compound: "Oc1cc2cc(CCN3CCN(c4nsc5ccccc45)CC3)c(Cl)cc2[nH]1"
  class: "inactive"
- compound: "COC1CC2CCC(C)[C@](O)(O2)C(=O)C(=O)N2CCCCC2C(=O)OC(C(C)CC2CCC(O)C(OC)C2)CC(=O)C(C)/C=C(/C)C(O)C(OC)C(=O)C(C)CC(C)C=CC=C/C=C\\1C (stereo partly specified)"
  class: "active"

Now look at this one.
// return assay outcome for `C[C@H](O)[C@@H]1C(=O)N2C(C(=O)O)=C(SCCN=CN)C[C@@H]12`
inactive

====

Tested on: ICS
protocolDescription: qHTS profiling for inhibitors of Plasmodium falciparum proliferation (AID 504749); further: nearly all actives have a fitted effect of over 60% in size
settings: P. falciparum in erythrocytes, SYBR Green DNA, 72 h; series mostly up to 28.7 µM
Records with an inconclusive call do not appear. Activity calls are given as the source filed them. Calls come from the whole dose curve; as a rule, active = well fitted inhibition curve with a large enough effect; inconclusive = small, poorly fitted or top-dose-only effect; inactive = flat fitted curve, though single readings scatter.
Result category, one only: True (active), False (inactive)

Example cases with answers are listed next.
- molecule: "OC[C@@H]1O[C@](CO)(O[C@H]2O[C@H](CO)[C@@H](O)[C@H](O)[C@H]2O)[C@H](O)[C@H]1O"
  class: "False"
- molecule: "CCCCCCCCCCCC(=O)OCC(O)C1OCC(O)C1O (centres undefined)"
  class: "False"
- molecule: "NC(CSSCC(N)C(=O)O)C(=O)O (centres undefined)"
  class: "False"

// return assay outcome for C[C@]12CC[C@@H]3c4ccc(O)cc4C[C@@H](CCCCCCCCCS(=O)CCCC(F)(F)C(F)(F)F)C3[C@@H]1CC[C@@H]2O (some centres undefined)
True

// return assay outcome for CC(=O)NC1[C@H](O)C[C@@](O)(C(=O)O)O[C@H]1[C@H](O)[C@H](O)CO (some centres undefined)
False

// return assay outcome for CN1[C@H]2CC(OC(=O)[C@H](CO)c3ccccc3)C[C@H]1[C@H]1O[C@H]12 (some centres undefined)
False

// return assay outcome for NC(C(=O)O)C(O)c1ccc(O)c(O)c1 (centres undefined)
True

// return assay outcome for `O=C(O)c1ccc(N[C@@H]2OC[C@@H](O)[C@@H](O)[C@@H]2O)cc1`
False

// return assay outcome for `Cc1cncc(C(=O)O)[n+]1[O-]`
False
